- assay.target: KRAS(G12V) (Homo sapiens, UniProt P01116, G12V)
- Construct: anti-KRAS Western blot degradation by PROTACs recruiting CRBN or VHL
- Sequence (P01116 1-188 isoform P01116-2 G12V): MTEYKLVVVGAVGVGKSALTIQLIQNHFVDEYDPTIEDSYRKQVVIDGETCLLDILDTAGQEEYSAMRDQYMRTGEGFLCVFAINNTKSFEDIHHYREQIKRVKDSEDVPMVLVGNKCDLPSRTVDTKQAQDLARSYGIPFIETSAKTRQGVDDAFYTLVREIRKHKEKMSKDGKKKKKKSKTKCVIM
- protocol.text: KRAS Western Blot Protein Degradation Assay, NCIH727
- Format: cell-based
- assay.context: 24 hr, read-out: WB data NCIH727 DC50
quantity.measured: DC50

>  <compound>
C#Cc1c(F)ccc2cc(O)cc(-c3ncc4c(N5CC6CCC(C5)N6C(=O)[C@@H](C)C#N)nc(OCC5(CN6CCN(CC7CCN(c8ccc9c(c8)CN(C8CCC(=O)NC8=O)C9=O)CC7)CC6)CC5)nc4c3F)c12 (stereo partly shown)

>  <obs.value>
< 100 nM

$$$$
>  <compound>
C#Cc1c(F)ccc2cc(O)cc(-c3ncc4c(N5CCN(C(=O)CC#N)[C@@H](CC#N)C5)nc(OCC5(CN6CCN(CC7CCN(c8ccc9c(c8)CN(C8CCC(=O)NC8=O)C9=O)CC7)CC6)CC5)nc4c3F)c12 (stereo partly shown)

>  <obs.value>
> 1000 nM

$$$$
>  <compound>
O=CO.[2H]C([2H])([2H])Oc1nc(-c2cc(O)cc3ccc(F)c(C#C)c23)c(F)c2nc(OCC3(CN4CCN(CC5CCN(c6ccc7c(c6)CN(C6CCC(=O)NC6=O)C7=O)CC5)CC4)CC3)nc(N3CC4CCC(C3)N4C(=O)CC(C)C#N)c12 (stereo not shown)

>  <obs.value>
< 100 nM

$$$$
>  <compound>
C#Cc1c(F)ccc2cc(O)cc(-c3ncc4c(N5CC6CCC(C5)N6C(=O)C5(C#N)CC5)nc(OCC5(CN6CCN(CC7CCN(c8ccc9c(c8)CN(C8CCC(=O)NC8=O)C9=O)CC7)CC6)CC5)nc4c3F)c12 (stereo not shown)

>  <obs.value>
< 100 nM

$$$$
